// data source = patent US10723723B2

For each of the molecules below, state its IC50.
- target_entity: hROMK (human Kir1.1) (Homo sapiens (Human), UniProt P48048)
- Sequence (P48048 whole entry): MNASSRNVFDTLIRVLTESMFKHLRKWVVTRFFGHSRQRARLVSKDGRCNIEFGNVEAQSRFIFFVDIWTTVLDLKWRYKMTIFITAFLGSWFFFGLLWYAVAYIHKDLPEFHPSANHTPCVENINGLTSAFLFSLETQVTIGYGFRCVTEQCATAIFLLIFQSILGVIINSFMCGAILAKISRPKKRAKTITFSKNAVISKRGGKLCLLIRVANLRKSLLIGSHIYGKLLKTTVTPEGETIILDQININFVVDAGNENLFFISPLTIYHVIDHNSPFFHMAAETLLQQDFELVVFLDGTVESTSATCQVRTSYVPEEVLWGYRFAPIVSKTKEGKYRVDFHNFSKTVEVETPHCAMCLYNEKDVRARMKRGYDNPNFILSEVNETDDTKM
- assay_comment: Thallium Flux Assay (FluxOR, CHO T-Rex hROMK stable cell line)
- study_conditions: CHO T-Rex hROMK cells, 10-point concentration response curve; read-out: Human ROMK TH Flux IC50
Form entry: enter the amount, then its unit.

Ask: Please indicate IC50 recorded for Cc1c(C(CO)N(C)Cc2cnc(-n3ncc4c(C#N)cccc43)nc2)ccc2c1COC2=O (stereo not shown)
Reply: 1900 nM

Ask: Please indicate IC50 recorded for COc1nn(-c2ccc(CNC[C@H](O)c3ccc4c(c3C)COC4=O)cn2)cc1C#N
Reply: 9.4 nM

Ask: Please indicate IC50 recorded for Cc1cn(-c2ccc(CNC[C@H](O)c3ccc4c(c3C)COC4=O)cn2)cn1
Reply: 35 nM

Ask: Please indicate IC50 recorded for Cc1c(C(O)CNCc2ccc(-c3ccc(C#N)c(F)c3)cc2)ccc2c1COC2=O (stereo not shown) [Example 10-I]
Reply: 53 nM
